TEST SYSTEM: human orexin 1 receptor (Homo sapiens, UniProt O43613)
Sequence (O43613 whole entry): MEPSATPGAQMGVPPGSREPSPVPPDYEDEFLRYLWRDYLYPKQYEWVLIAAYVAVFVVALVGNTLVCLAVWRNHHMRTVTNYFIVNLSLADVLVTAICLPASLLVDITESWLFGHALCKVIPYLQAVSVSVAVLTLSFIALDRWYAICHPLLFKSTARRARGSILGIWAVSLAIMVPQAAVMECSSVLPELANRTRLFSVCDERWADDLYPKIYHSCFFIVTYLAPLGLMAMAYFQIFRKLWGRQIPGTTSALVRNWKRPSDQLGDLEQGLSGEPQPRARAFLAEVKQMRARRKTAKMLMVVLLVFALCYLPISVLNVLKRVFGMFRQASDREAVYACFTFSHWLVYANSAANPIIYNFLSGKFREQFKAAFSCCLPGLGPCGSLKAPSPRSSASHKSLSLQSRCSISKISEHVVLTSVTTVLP
ASSAY PROTOCOL: Calcium accumulation in cells (FLIPR), antagonism of orexin A, human orexin 1 receptor
CONDITION: calcium accumulation, antagonism of orexin A, Cheng-Prusoff corrected; read-out: FLIPR hOx1R Ki
Quick rule for you: Ki under 1000 nM gets true (1), anything else gets false (0).

Observe how each entry below is paired with its result.
COc1cc(C)nc(N2CCC3(CC2)NCCN(Cc2c[nH]c4ccccc24)C3=O)n1 : true (1)
COc1cccc(-c2cn(C)nc2CN2CCNC3(CCN(c4nc(C)cc(C)n4)CC3)C2=O)c1 : false (0)

Does the reported Ki of COc1cc(C)nc(N2CCC3(CCN(Cc4c[nH]c5ccccc45)C3=O)C2)n1 (centres unmarked) stay below 1000 nM? false (0)

Lab log: compare recorded Ki with 1000 nM; is it strictly lower for Cc1cc(C)nc(N2CCC3(CC2)OCCN(Cc2ccccc2-c2ccco2)C3=O)n1 ? false (0)

Hello, is Ki of the following compound strictly smaller than 1000 nM? O=C1N(Cc2c[nH]c3ccccc23)CCC12CCN(c1cnc3ccccc3n1)CC2 false (0)

###

TEST SYSTEM: human orexin 2 receptor (Homo sapiens, UniProt O43614)
Construct: expressed in transfected cells
Sequence (O43614 whole entry): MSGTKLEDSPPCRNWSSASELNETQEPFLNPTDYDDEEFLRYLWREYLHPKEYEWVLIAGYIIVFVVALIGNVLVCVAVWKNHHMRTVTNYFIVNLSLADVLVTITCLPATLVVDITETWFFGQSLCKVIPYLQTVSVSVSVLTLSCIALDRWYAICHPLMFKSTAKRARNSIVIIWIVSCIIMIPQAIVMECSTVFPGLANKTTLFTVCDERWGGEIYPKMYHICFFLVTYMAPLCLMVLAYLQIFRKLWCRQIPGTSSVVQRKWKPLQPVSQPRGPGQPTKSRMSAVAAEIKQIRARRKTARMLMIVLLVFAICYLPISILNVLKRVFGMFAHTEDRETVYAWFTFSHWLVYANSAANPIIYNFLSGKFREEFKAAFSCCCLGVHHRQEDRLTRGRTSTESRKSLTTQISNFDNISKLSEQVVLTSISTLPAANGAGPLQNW
ASSAY PROTOCOL: Radioligand binding assay ([3H]-SB649868 competition), human orexin 2 receptor
CONDITION: radioligand [3H]-SB649868; read-out: Binding hOx2R Kd
Description: Radioligand Binding Assay […] Bound radioactivity was measured, and data were analysed with the program XLFIT or Graphpad Prism. Protein concentration was determined according to the Bradford/BioRad Protein Assay Kit. […]
Item-by-item account of Kd
Respond with the bare value in nM.

Record excerpt, results attached:
COc1cc(C)nc(N2CCC3(CCN(Cc4nn(C)nc4-c4ccccc4)C3=O)C2)n1 (stereo not shown) : 118
Cc1cc(C)nc(N2CCC3(CC2)OCCN(Cc2nn(C)cc2-c2ccccc2)C3=O)n1 : 229
COc1cccc(-c2ocnc2CN2CCNC3(CCN(c4nc(C)cc(OC)n4)CC3)C2=O)c1 : 200

Shift focus to the following entry.
For COCc1noc(-c2ccccc2CN2CCNC3(CCN(c4nc(C)cc(C)n4)CC3)C2=O)n1 the compound record lists Kd as 252

###

Each entry below carries its reported Ki.
TEST SYSTEM: human orexin 1 receptor (Homo sapiens)
ASSAY PROTOCOL: Calcium accumulation in cells (FLIPR), antagonism of orexin A, human orexin 1 receptor
CONDITION: calcium accumulation, antagonism of orexin A, Cheng-Prusoff corrected; read-out: FLIPR hOx1R Ki

Some entries whose results are on file:
COc1cccc(-c2n[nH]nc2CN2CCC3(CCN(c4nccc(OC)n4)C3)C2=O)c1 (stereo not drawn) [Example 5.14] : 544 nM
COc1cccc(-c2nn(C)nc2CN2CCNC3(CCN(c4nc(C)cc(C)n4)CC3)C2=O)c1 [Example 1.5] : 1490 nM
Cn1c(N2CCC3(CCN(Cc4ccccc4-c4ccccc4)C3=O)CC2)nc2ccccc21 [Example 3.8] : 506 nM
COc1cc(C)nc(N2CCC3(CC2)NCCN(Cc2n[nH]c4ccccc24)C3=O)n1 [Example 1.65] : 1580 nM
COc1ccnc(N2CCC3(CCCN(Cc4c[nH]c5ccccc45)C3=O)C2)n1 (stereo not drawn) [Example 7.4] : 317 nM

Form field, Ki with human orexin 1 receptor (Homo sapiens), item COc1ccnc(N2CCC3(CCCN(Cc4c[nH]c5ncccc45)C3=O)C2)n1 (stereo not drawn) [Example 7.2] : 3200 nM
